Tested on: SF-295
assay overview: In vitro cytostatic effect (SRB): SF-295, Cancer of the central nervous system
condition context: read-out: LC50, 48-hour incubation
Catalogue of CC50 readings, one per entry.

compound="Nc1ccn(C2CCC(COP(=O)(O)OCC(O)COP(=O)(O)OCC3OC(n4cc(F)c(=O)[nH]c4=O)CC3O)O2)c(=O)n1 (racemic)" experimental_readout=CC50 observed_measurement="> 100 µM"

As a next step, examine the compound that follows.
I am curious: what CC50 value has been reported for CCCCCCCCCCCCCCCCCCOC(COP(=O)(O)OCC1OC(n2cc(F)c(=O)[nH]c2=O)CC1O)COP(=O)(O)OCC1OC(n2ccc(N)nc2=O)C(O)C1O (racemic) ?
> 100 µM
